- target_entity: T1, Anti-PSMA Fab (SEQ ID NOs: 19, 20)
- T1 construct: Biotinylated and captured on neutravidin coated plates in the phage ELISA; also called 006 PSMA Fab
- measurement_description: phage binding ELISA on captured Fab; competitor PSMA antigen pre-incubated in the wells
reported_property: Anti-PSMA Fab signal in the presence of PSMA

# binder, result_value
rows = [
    ("DVNWCTPPWMCWGF (Clonal phage of the peptide-180 library, tested as crude phage supernatant; not shown: fused to pIII of the bacteriophage) [Phage-2198]", 0.0743),
    ("MERWCIPEWMCERT (Clonal phage of the peptide-180 library, tested as crude phage supernatant; not shown: fused to pIII of the bacteriophage) [Phage-2203]", 0.072),
    ("ESHLCIPAWMCDVQ (Clonal phage of the peptide-180 library, tested as crude phage supernatant; not shown: fused to pIII of the bacteriophage) [Phage-2193]", 0.0973),
    ("DLKLCKPEWMCNGM (Clonal phage of the peptide-180 library, tested as crude phage supernatant; not shown: fused to pIII of the bacteriophage) [Phage-2204]", 0.0815),
    ("EYNWCTPRWMCKGF (Clonal phage of the peptide-180 library, tested as crude phage supernatant; not shown: fused to pIII of the bacteriophage) [Phage-2201]", 0.0617),
    ("LYKWCMPAWMCEQK (Clonal phage of the peptide-180 library, tested as crude phage supernatant; not shown: fused to pIII of the bacteriophage) [Phage-2195]", 0.0702),
    ("LADWCRPVWMCEGF (Clonal phage of the peptide-180 library, tested as crude phage supernatant; not shown: fused to pIII of the bacteriophage) [Phage-2196]", 0.287),
    ("MTPWCKPAWMCQGI (Clonal phage of the peptide-180 library, tested as crude phage supernatant; not shown: fused to pIII of the bacteriophage) [Phage-2192]", 0.0994),
    ("GEIWCIPAWMCNTG (Clonal phage of the peptide-180 library, tested as crude phage supernatant; not shown: fused to pIII of the bacteriophage) [Phage-2200]", 0.0549),
    ("VDRLCTPEWMCSGF (Clonal phage of the peptide-180 library, tested as crude phage supernatant; not shown: fused to pIII of the bacteriophage) [Phage-2205]", 0.0763),
]
